- targetDesc: GRID2IP_1, A4D2P6
- Sequence (A4D2P6 1-87): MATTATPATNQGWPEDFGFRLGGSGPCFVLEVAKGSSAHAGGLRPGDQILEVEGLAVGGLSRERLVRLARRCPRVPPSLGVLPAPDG
- protocol: holdup assay
- Parameters: key: below the threshold = too weak to quantify, mostly under pKd 3.1 to 4
- protocolConditions: plain residues with an end cap or a label only (N-terminal biotin on a linker: ado-ado)
observationType: pKd

{"binder": "THHRKIHTRV [ZNF599, Q96NL3]", "measuredValue": 3.6}
{"binder": "HYPASPDSWV [CTNND2, Q9UQB3]", "measuredValue": "below the threshold"}
{"binder": "DSEEELPTRL [GRK6, P43250]", "measuredValue": "below the threshold"}
{"binder": "GTMFLRETSL [GUCY1A2, P33402]", "measuredValue": "below the threshold"}
